meta.source: PubChem BioAssay

# PROTOCOL_DETAILS: small-molecule microarray binders of probe aWnt5a, primary screen, biochemical, biotinylated probe, 635/667 nm fluorescence (AID 1113);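 note: score merges 667 nm fluorescence intensity with signal-to-noise per printed feature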
# PROTOCOL_CONDITIONS: higher = more signal
MEASURED_ATTRIBUTE: composite z-score

>  <COMPOUND>
COCCCNC(=O)[C@@]1(Cc2ccccc2N=[N+]=[N-])N=C(c2ccc(OCCCO)cc2)O[C@H]1c1ccccc1

>  <composite z-score>
0.269

$$$$
>  <COMPOUND>
COc1ccc(CCNC(=O)[C@@H]2c3ccccc3C(=O)N(Cc3cc(C(F)(F)F)cc(C(F)(F)F)c3)[C@H]2c2ccc(CO)cc2)cc1

>  <composite z-score>
-0.141

$$$$
>  <COMPOUND>
CN(C)CCCNC(=O)[C@@]1(C)c2ccccc2C(=O)N(Cc2ccccc2)[C@H]1c1ccc(CO)cc1

>  <composite z-score>
0.0026

$$$$

Dear reader, for each entry below, please note its composite z-score.
1. CCCC[C@@H]1C[C@H]1[C@@H](NC(=O)Cc1ccccc1)c1ccc(-c2ccccc2)cc1
2. C=CCC(OC(C)=O)[C@@H]1[C@@H](N(Cc2ccc(-c3cccc(C(F)(F)F)c3)o2)C(=O)c2ccc(-c3ccccc3)cc2)c2cc(OCCCO)ccc2N1C(=O)c1ccc2ccccc2n1 (some centres not stated)
3. C=CCN1C(=O)[C@@]2(CCS(=O)(=O)c3ccccc3)N=C(c3ccc(OCCCO)cc3)O[C@H]2c2ccccc21
4. COC(=O)[C@@]1(Cc2ccc(OC)cc2)[C@H]2c3cc(C(=O)N4CCCC4)n(Cc4c(-c5ccccc5)noc4C)c3C[C@H]2CN1C(=O)c1ccccc1

-0.0276
0.0437
0.0215
0.42

----------
# STUDY_SYSTEM: NADPH oxidase 2 (Homo sapiens) (UniProt P04839)
# Sequence (P04839 whole entry, looked up): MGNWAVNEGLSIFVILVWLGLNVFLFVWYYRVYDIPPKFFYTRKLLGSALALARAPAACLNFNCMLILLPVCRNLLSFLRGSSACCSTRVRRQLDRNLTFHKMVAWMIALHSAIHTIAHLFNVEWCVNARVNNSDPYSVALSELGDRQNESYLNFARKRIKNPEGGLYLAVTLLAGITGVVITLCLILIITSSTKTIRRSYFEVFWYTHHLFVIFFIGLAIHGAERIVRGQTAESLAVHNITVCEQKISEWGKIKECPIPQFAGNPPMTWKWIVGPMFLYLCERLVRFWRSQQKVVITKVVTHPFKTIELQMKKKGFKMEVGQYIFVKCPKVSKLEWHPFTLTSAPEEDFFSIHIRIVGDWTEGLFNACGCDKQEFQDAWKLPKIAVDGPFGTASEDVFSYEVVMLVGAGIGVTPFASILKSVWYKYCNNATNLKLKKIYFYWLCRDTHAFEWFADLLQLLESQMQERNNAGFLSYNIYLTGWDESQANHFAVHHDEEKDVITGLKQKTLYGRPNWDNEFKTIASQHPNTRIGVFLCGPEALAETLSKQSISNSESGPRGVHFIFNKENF
# PROTOCOL_DETAILS: NOX2-dependent H2O2 signal modulators, primary screen, NOX inhibitor project, cell-based, HEK293-NOX2, PMA-stimulated, Amplex Red fluorescence (AID 1159); note: test concentration not given here
# PROTOCOL_CONDITIONS: 45 min, higher = more signal, called active from +8 up or from −8 down
Tick true (1) if z-score is -0.005 or greater. Tick false (0) if z-score is less than -0.005.

Here are 5 compounds together with their reported answers.
>  <GIVEN_SMILES>
[N-]=[N+]=NCc1ccccc1C[C@@]1(C(=O)NCc2ccccc2)N=C(c2ccc(OCCCO)cc2)O[C@@H]1c1ccccc1N=[N+]=[N-]

>  <CAT>
true (1)

$$$$
>  <GIVEN_SMILES>
C=CCNC(=O)[C@@H]1[C@H]2C(=O)O[C@H](c3ccccc3)[C@H](c3ccccc3)N2[C@H](c2ccc(O)cc2)[C@@]12C(=O)N(C(=O)OCCOC)c1ccc(C#CC3(O)CCCCCC3)cc12

>  <CAT>
false (0)

$$$$
>  <GIVEN_SMILES>
O=C1O[C@H](c2ccccc2)[C@H](c2ccccc2)N2[C@H]1[C@@H](C(=O)Nc1nc3ccccc3s1)[C@]1(C(=O)Nc3ccc(C#CC4(O)CCCCCC4)cc31)[C@H]2c1ccccc1OCCO

>  <CAT>
true (1)

$$$$
>  <GIVEN_SMILES>
CCCC[C@@H]1C[C@H]1[C@@H](NC(=O)c1ccccc1)c1ccc(C(F)(F)F)cc1

>  <CAT>
false (0)

$$$$
>  <GIVEN_SMILES>
C=C[C@@H](OC)[C@H](OC(=O)Nc1ccc(SC)cc1)c1ccc(O)c(F)c1

>  <CAT>
false (0)

$$$$

Now take the following compound into account.
Given COc1ccc([Si](C)(C)[C@@H]2[C@@H](CC(=O)N(CCO)Cc3ccccc3)O[C@]3(C(=O)N(Cc4cccc(N5CCOC5=O)c4)c4ccccc43)[C@H]2C)cc1 , state whether its z-score is at least -0.005. true (1)

----------
# PROTOCOL_DETAILS: small-molecule microarray binders of probe aShh, primary screen, biochemical, biotinylated probe, 635/667 nm fluorescence (AID 1114);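 note: probe is biotin-labelled aShh protein from a stem cell growth factor screen; measures binding of labelled protein to compounds printed on the slide; score merges feature fluorescence at 667 nm with signal-to-noise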
# PROTOCOL_CONDITIONS: higher = more signal
Tick Fulfilled if composite z-score is 0.2 or greater. Tick Not fulfilled if composite z-score is less than 0.2.

Here are 5 compounds together with their reported answers.
>  <COMPOUND>
CC(C)C(=C=CC[C@H](O)c1cccc(OCCO)c1)C[C@H](O)c1cc(Cl)cc(Cl)c1O

>  <CAT>
Fulfilled

$$$$
>  <COMPOUND>
NC(N)=NCCCn1cc(CNC(=O)[C@@H](N)Cc2ccccc2)nn1

>  <CAT>
Not fulfilled

$$$$
>  <COMPOUND>
COc1ccc(CCNC(=O)[C@@]2(Sc3ccc(C)cc3)CC(=O)N(C3Cc4ccccc4C3)[C@@H]2c2ccc(CO)cc2)cc1

>  <CAT>
Not fulfilled

$$$$
>  <COMPOUND>
COC(=O)c1c(CC[C@@H](CO)NC(=O)N2CCC[C@H]2Cn2cc(Cc3ccccc3)nn2)oc(C(C)=O)c1C(=O)OC

>  <CAT>
Not fulfilled

$$$$
>  <COMPOUND>
CC=CC(O)C1C=CC2C(=O)N(c3ccccc3)C(=O)C2N1Nc1ccccc1F (configuration not stated)

>  <CAT>
Fulfilled

$$$$

Given COCCOC(=O)N1C(=O)[C@@]2(c3cc(C#CC4=CCCCC4)ccc31)[C@H](c1ccc(OCCO)cc1)N1[C@H](c3ccccc3)[C@H](c3ccccc3)OC(=O)[C@H]1[C@@H]2C(=O)NC[C@H](O)c1ccccc1 , state whether its composite z-score is at least 0.2. Not fulfilled

Given C[C@@H]1ON(c2ccc(C(=O)OC(C)(C)C)cc2)[C@H](c2ccc(O)cc2)[C@H]1C(=O)N1C(=O)OC[C@H]1Cc1ccccc1 , state whether its composite z-score is at least 0.2. Not fulfilled

----------
# PROTOCOL_DETAILS: CREB reporter modulators under forskolin, primary screen, cell-based, PC12, CRE-LacZ reporter, forskolin-stimulated (AID 1146);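 note: PC12 cells with 6xCRE LacZ reporter stimulated by forskolin 10 µM; beta-galactosidase reporter signal reflecting CREB driven transcription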
# PROTOCOL_CONDITIONS: luminescence, 4.5 h, called active from +8 up or from −8 down
Active and inactive are the calls of the source.
Choose one outcome from this list and give only that: active, inactive

>  <COMPOUND>
CC(C)(C)N1CC=CC23O[C@@H]4C=CCOC(=O)[C@@H]4[C@H]2C(=O)N(CCCCCCO)[C@@H]3C1=O (stereo partly drawn)

>  <CAT>
inactive

$$$$
>  <COMPOUND>
O=C(N1CCCCC1)[C@@]1(CCS(=O)(=O)c2ccccc2)COC(c2ccc(OCCCO)cc2)=N1

>  <CAT>
inactive

$$$$
>  <COMPOUND>
COCCOC(=O)N1C(=O)[C@@]2(c3cc(C#CCCO)ccc31)[C@H](C(=O)Nc1nc3ccccc3s1)[C@H]1C(=O)O[C@H](c3ccccc3)[C@H](c3ccccc3)N1[C@@H]2c1ccccc1OCCO

>  <CAT>
inactive

$$$$
>  <COMPOUND>
COCCOC(=O)N1C(=O)[C@@]2(c3cc(C#CC4=CCCCC4)ccc31)[C@H](C(=O)N1CCCCCCC1)[C@H]1C(=O)O[C@H](c3ccccc3)[C@H](c3ccccc3)N1[C@@H]2c1ccc(O)cc1

>  <CAT>
inactive

$$$$
>  <COMPOUND>
CCOC(=O)C[C@H]1[C@H](OC(=O)Cc2ccc3c(c2)OCO3)[C@@H](NC(=O)CC(C)C)c2cc(OCCCO)ccc2N1C(=O)Cc1ccc(OC)cc1

>  <CAT>
inactive

$$$$
>  <COMPOUND>
COC(=O)[C@H](Cc1ccccc1)N1CC(/C=C/C2CC2)=C[C@H]1[C@H](O)Cc1ccccc1

>  <CAT>
active

$$$$
>  <COMPOUND>
COc1ccc([Si](C)(C)[C@H]2[C@H](CCn3cc([C@H](O)c4ccccc4)nn3)O[C@@]3(C(=O)N(Cc4ccc(N5C(=O)c6cccc7cccc5c67)cc4)c4ccccc43)[C@@H]2C)cc1

>  <CAT>
inactive

$$$$
>  <COMPOUND>
C=CCNC(=O)[C@@H]1[C@H]2C(=O)O[C@H](c3ccccc3)[C@H](c3ccccc3)N2[C@H](c2ccc(O)cc2)[C@@]12C(=O)N(C(=O)OCCOC)c1ccc(C#CC3(O)CCCCCC3)cc12

>  <CAT>
inactive

$$$$
>  <COMPOUND>
C=CCC(OC(C)=O)[C@@H]1[C@@H](N(Cc2ccc(-c3ccccc3)cc2)C(=O)Cc2ccc(F)cc2)c2cc(OCCCO)ccc2N1C(=O)Cc1ccc(OC)cc1 (stereo partly drawn)

>  <CAT>
inactive

$$$$
>  <COMPOUND>
CN1C(=O)C2C=CC(C(O)C#Cc3ccccc3)N(Nc3ccccc3)C2C1=O (stereo not drawn)

>  <CAT>
inactive

$$$$

Answer briefly: the call reported for Cc1cc(C)c(C(O)C2C=CC3C(=O)N(c4ccccc4)C(=O)C3N2Nc2ccc(C(C)C)cc2)c(C)c1 (stereo not drawn) in this assay. inactive

Answer briefly: the call reported for CC(C)(C)OC(=O)CC[C@]1(C(=O)NCC(O)CO)N=C(c2ccc(OCCCO)cc2)O[C@H]1c1ccccc1 (stereo partly drawn) in this assay. inactive

Answer briefly: the call reported for COCCOC(=O)N1C(=O)[C@@]2(c3cc(C#CC4=CCCCC4)ccc31)[C@H](c1ccc(OCCO)cc1)N1[C@H](c3ccccc3)[C@H](c3ccccc3)OC(=O)[C@H]1[C@@H]2C(=O)NC[C@H](O)c1ccccc1 in this assay. inactive
